# experiment-description: in vitro
# applied-conditions: human, hela cells, % viability
readout-label: viability at 28.5 h, 10 µM (%)
Respond with the bare value in %.

Example compounds with recorded viability at 28.5 h, 10 µM:
> print(dat)
                                   compound  endpoint.result
1              O=C(Cn1cncn1)c1ccc2c(c1)CCO2             93.5
2        CNC(=O)CSc1ncnc2c1cnn2-c1ccc(F)cc1             94.4
3  COCCn1c(C)cc(CN2CC3CCCN3C[C@@H]2C)c1C (some centres unmarked)             83.8
4  CN(C)CCC1CCCCN1C(=O)C1C2CCCCC21 (centres unmarked)             98.9
5  Cc1cc(C[C@@H]2COC[C@H]2NCc2ccc(Cl)c(Cl)c2)on1               88

API: the following record is the query input.
Per the record, `Cc1cnc(C(=O)N2CCC3(CC2)CC(=O)c2cc(Cl)cc(Cl)c2O3)cn1` has viability at 28.5 h, 10 µM of 89.7

###

Recorded viability at 28.5 h, 10 µM for the following compounds
# experiment-description: in vitro
# applied-conditions: human, hela cells, % viability
Respond with the bare value in %.

> print(dat)
                                   compound               readout.label  endpoint.result
1  Cc1ccc2c(O)c(C(=O)NCc3cccs3)cnc2c1 [CBK159997]  viability at 28.5 h, 10 µM             78.2

Per the record, CCN(CC)CCCN1C(=O)CSC1c1ccc2c(c1)OCO2 (centres unmarked) [CBK263482C] has viability at 28.5 h, 10 µM of 102

Per the record, COc1ccccc1NC(=O)CCSc1nc(C)cc(C)n1 [CBK266371] has viability at 28.5 h, 10 µM of 103

Per the record, Cc1cccc(CN(CC(C)(C)CN)C(=O)NC(C)c2cccc3ccccc23)n1 (centres unmarked) [CBK002423C] has viability at 28.5 h, 10 µM of 84.4

Per the record, N=C(SC1CC(=O)N(c2ccc(C(=O)O)cc2)C1=O)N1N=C(c2ccccc2)CC1c1ccccc1 (centres unmarked) [CBK262446] has viability at 28.5 h, 10 µM of 90.9

Per the record, O=[N+]([O-])c1cccnc1Oc1cccc(Cl)c1Cl [CBK002596] has viability at 28.5 h, 10 µM of 98

Per the record, Cc1ccc(C(=O)NCCCc2ccc(Cl)cc2)c(=O)n1C [CBK281567] has viability at 28.5 h, 10 µM of 80.4

Per the record, COc1ccc(Nc2cc(-n3nc(C)cc3-c3ccccc3)ncn2)cc1 [CBK293925] has viability at 28.5 h, 10 µM of 104

Per the record, Cc1cc(F)ccc1NC(=O)c1n[nH]cc1Cl [CBK288020] has viability at 28.5 h, 10 µM of 92.4

Per the record, Cc1c(C(=O)N2CCn3nc(CO)cc3C2)n(C)c2ccc(F)cc12 [CBK306552] has viability at 28.5 h, 10 µM of 97.7

Per the record, Cc1ccc(C2(C(=O)N(C)CCN3CCCCC3)CCOCC2)cc1 [CBK281833] has viability at 28.5 h, 10 µM of 107

Per the record, O=C(Nc1c(F)cc(F)cc1OC1CCNCC1)c1cccnc1 [CBK050275T] has viability at 28.5 h, 10 µM of 100

Per the record, CCOc1ccccc1-n1c(CN2CCN(C(=O)c3ccco3)CC2)nc2ccccc2c1=O [CBK267203] has viability at 28.5 h, 10 µM of 86.4

Per the record, COc1ccc(NC(=O)c2c[nH]c3nc(C)ccc3c2=O)cc1 [CBK287816] has viability at 28.5 h, 10 µM of 88.4

Per the record, COc1ccc(C2c3ccccc3C[N+]3(C)CCCN23)cc1 (centres unmarked) [CBK008769] has viability at 28.5 h, 10 µM of 95.7

Per the record, Cc1noc(C)c1S(=O)(=O)Nc1ccc2nsnc2c1 [CBK062223] has viability at 28.5 h, 10 µM of 90.4
